Experiment: Quantitative highthroughput screen to assess conditional lethalithy of P12 Ichikawa cells grown in RPMI1640 with untreated serum (RPMI+s) (AID 1963881); further: nearly all actives have a fitted effect of over 35% in size
Details: ATP luminescence, 48 h; viability; series mostly up to 45.8 µM
Records with an inconclusive call do not appear. Calls of active or inactive are those of the source. The call rests on the fitted dose curve; in most records, active means well fitted cell-killing curve with a large enough effect; inconclusive means small, poorly fitted or top-dose-only effect; inactive means flat fitted curve, though single readings scatter.
Outcome field: choose from active, inactive

Some solved entries appear below for comparison.
- molecule: "Cc1[nH]c(C=C2C(=O)Nc3ccc(S(=O)(=O)Cc4c(Cl)cccc4Cl)cc32)c(C)c1C(=O)N1CCC[C@H]1CN1CCCC1"
  discrete-label: "inactive"
- molecule: "O=c1cc(-c2ccc(O)c(O)c2)oc2cc(O)cc(O)c12"
  discrete-label: "inactive"

Problem: Can you look up the reported call for `COc1ccc2cc([C@H](C)C(=O)O)ccc2c1` for me?
Solution: inactive

Problem: Can you look up the reported call for `Cc1cc(Nc2nc(N[C@@H](C)c3ccc(F)cc3)c(C#N)cc2F)n[nH]1` for me?
Solution: active

Problem: Can you look up the reported call for CC[C@@H]1C(=O)N(C)c2cnc(Nc3ccc(C(=O)NC4CCC(N5CCN(CC6CC6)CC5)CC4)cc3OC)nc2N1C(C)C (some centres not stated) for me?
Solution: active

Problem: Can you look up the reported call for `CC(=O)N[C@@H]1[C@H](O[C@@H]2c3ccc(c(Cl)c3)Oc3cc4cc(c3O[C@H]3O[C@H](CO)[C@@H](O)[C@H](O)[C@H]3NC(=O)CCCCCCCC(C)C)Oc3ccc(cc3Cl)C[C@H]3NC(=O)[C@H](N)c5ccc(O)c(c5)Oc5cc(O)cc(c5)[C@H](NC3=O)C(=O)N[C@H]4C(=O)N[C@H]3C(=O)N[C@@H]2C(=O)N[C@@H](C(=O)O)c2cc(O)cc(O[C@H]4O[C@H](CO)[C@@H](O)[C@H](O)[C@H]4O)c2-c2cc3ccc2O)O[C@H](CO)[C@@H](O)[C@@H]1O` for me?
Solution: inactive

Problem: Can you look up the reported call for `Clc1cccc(-c2nnnn2Cc2cccnc2)c1Cl` for me?
Solution: active
